Values from patent US20210324099A1

- tested.system: T1, hCD137.1.2-F.G1d (human)
- T1 construct: Portion of the human CD137 extracellular region linked to an antibody constant region
- T1 sequence (chain, as listed by the source limits assumed): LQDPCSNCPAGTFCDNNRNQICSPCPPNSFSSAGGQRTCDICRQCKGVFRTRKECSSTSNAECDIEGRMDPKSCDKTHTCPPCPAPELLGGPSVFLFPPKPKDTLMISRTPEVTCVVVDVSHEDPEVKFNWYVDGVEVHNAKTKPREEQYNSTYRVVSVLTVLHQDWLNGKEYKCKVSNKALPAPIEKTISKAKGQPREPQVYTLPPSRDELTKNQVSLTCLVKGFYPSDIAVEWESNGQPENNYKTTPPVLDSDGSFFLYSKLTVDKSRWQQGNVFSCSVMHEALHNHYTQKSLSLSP
- test.details: ELISA; 500 uM kynurenine, Ab 10 ug/mL
quantity.name: absorbance ratio
Reply with just the number.

Fill blank: measured absorbance ratio of the binder dBBK060-P253 (antibody, human IgG1, kappa, V domains shown) VH: QVQLVQSGAEVKKPGSSVKVSCKASGGDFSNYVISWVRQAPGQGLEWMGFINPIYGAAGYAQKFQGRVTITADESTSTAYMELSSLRSEDTAVYYCARDEPVASLPHGAFDIWGQGTLVTVSS VL: DIVMTQSPLSLPVTPGEPASISCRSSQSLVDPWGNTFLSWYLQKPGQSPQLLIYEISNRFYGVPDRFSGSGSGTDFTLKISRVEAEDVGVYYCMQAKDFPRTFGPGTKVEIKR is ____. 1.4

Fill blank: measured absorbance ratio of the binder dBBK102-P253 (antibody, human IgG1, kappa, V domains shown) VH: QVQLVQSGAEVKKPGSSVKVSCKASGGAFSYYLISWVRQAPGQGLEWMGFVDPIRGGAFYAQKFQGRVTITADESTSTAYMELSSLRSEDTAVYYCARDRPVNAAPRGAFDIWGQGTLVTVSS VL: DIVMTQSPLSLPVTPGEPASISCRSSQSLVWNDRNTFLSWYLQKPGQSPQLLIYEIRKRFYGVPDRFSGSGSGTDFTLKISRVEAEDVGVYYCMQAQDFPRTFGQGTKVEIKR is ____. 1.2

Fill blank: measured absorbance ratio of the binder dBBK101-P253 (antibody, human IgG1, kappa, V domains shown) VH: QVQLVQSGAEVKKPGSSVKVSCKASGGAFSYYLISWVRQAPGQGLEWMGFVDPIRGGAFYAQKFQGRVTITADESTSTAYMELSSLRSEDTAVYYCARDRPVNAAPRGAFDIWGQGTLVTVSS VL: DIVMTQSPLSLPVTPGEPASISCRSSQSLVGDRGNTYLSWYLQKPGQSPQLLIYEIGSIFYGVPDRFSGSGSGTDFTLKISRVEAEDVGVYYCMQAAEFPRTFGQGTKVEIKR is ____. 1.2

Fill blank: measured absorbance ratio of the binder dBBK026-P253 (antibody, human IgG1, kappa, V domains shown) VH: QVQLVQSGAEVKKPGSSVKVSCKASGGEFSNYFISWVRQAPGQGLEWMGMVHPIEGWAVYAQKFQGRVTITADESTSTAYMELSSLRSEDTAVYYCARDRPVFCCPRGAFDIWGQGTLVTVSS VL: DIVMTQSPLSLPVTPGEPASISCRSSQSLVSPGDNTFLSWYLQKPGQSPQLLIYEIERRFYGVPDRFSGSGSGTDFTLKISRVEAEDVGVYYCMQASTFPRTFGQGTKVEIKR is ____. 1.2

Consider now this further binder.
Fill blank: measured absorbance ratio of the binder dBBK051-P253 (antibody, human IgG1, kappa, V domains shown) VH: QVQLVQSGAEVKKPGSSVKVSCKASGGGFSSYGISWVRQAPGQGLEWMGALFPISSQASYAQKFQGRVTITADESTSTAYMELSSLRSEDTAVYYCARDRPVDYVPHGAFDIWGQGTLVTVSS VL: DIVMTQSPLSLPVTPGEPASISCRSSQSLVSPGDNTFLSWYLQKPGQSPQLLIYEIERRFYGVPDRFSGSGSGTDFTLKISRVEAEDVGVYYCMQASTFPRTFGQGTKVEIKR is ____. 1.2
